Origin of values: ChEMBL document CHEMBL1153760

assayed.target: Estrogen receptor (Homo sapiens)
assay.method.text: Antagonist activity at estrogen receptor in human Ishikawa cells assessed as 17-beta-estradiol-induced alkaline phosphatase activity after 3 days by chemiluminescence assay
Format: functional, cell-based
pIC50: −log10 of the molar value.
readout.name: pIC50

Sample answers from the record:
Oc1ccc2c(c1)OCCC1=C2[C@H](c2ccc(OCCN3CCCCCC3)cc2)Oc2ccccc21 = 7.17
CCN(CC)CCOc1ccc([C@H]2Oc3ccccc3C3=C2c2ccc(O)cc2OCC3)cc1 = 6.95
Oc1ccc2c(c1)O[C@@H](c1ccc(OCCN3CCCCC3)cc1)C1=C2CCOc2cc(O)ccc21 = 7.49
CCN(CC)CCOc1ccc([C@@H]2Oc3ccccc3C3=C2c2ccc(O)cc2OCC3)cc1 = 6.88
COc1ccc2c(c1)OCCC1=C2[C@@H](c2ccc(OCCN3CCCCC3)cc2)Oc2cc(O)ccc21 = 7.12
Oc1ccc2c(c1)O[C@@H](c1ccc(OCCCN3CCCCC3)cc1)C1=C2CCOc2cc(O)ccc21 = 6.23

1. Oc1ccc2c(c1)OCCC1=C2[C@@H](c2ccc(OCCN3CCCCCC3)cc2)Oc2ccccc21
2. Oc1ccc2c(c1)OCCC1=C2[C@@H](c2ccc(OCCN3CCCCC3)cc2)Oc2ccccc21
INPUT: Just tell me: smaller pIC50 value, 1 or 2 ? Reply briefly: the label of your chosen item.
OUTPUT: 1

###

assayed.target: Estrogen receptor (Homo sapiens, UniProt P03372)
Sequence (P03372 whole entry): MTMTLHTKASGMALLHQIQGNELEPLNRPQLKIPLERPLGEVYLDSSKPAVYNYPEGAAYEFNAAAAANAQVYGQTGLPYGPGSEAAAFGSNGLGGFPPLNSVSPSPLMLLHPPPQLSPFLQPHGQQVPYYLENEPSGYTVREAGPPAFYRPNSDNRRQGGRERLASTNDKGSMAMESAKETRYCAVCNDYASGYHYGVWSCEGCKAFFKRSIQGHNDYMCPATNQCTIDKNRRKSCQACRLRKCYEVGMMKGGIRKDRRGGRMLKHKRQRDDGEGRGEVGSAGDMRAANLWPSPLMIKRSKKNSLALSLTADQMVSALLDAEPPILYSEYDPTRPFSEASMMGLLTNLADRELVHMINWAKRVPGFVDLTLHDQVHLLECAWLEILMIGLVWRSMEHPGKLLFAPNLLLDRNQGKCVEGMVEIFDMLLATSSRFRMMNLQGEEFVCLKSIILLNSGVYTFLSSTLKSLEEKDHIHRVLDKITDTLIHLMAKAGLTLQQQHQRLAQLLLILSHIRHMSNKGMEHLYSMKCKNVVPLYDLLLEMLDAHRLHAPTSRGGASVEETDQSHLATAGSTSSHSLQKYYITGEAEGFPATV
assay.method.text: Antagonist activity at estrogen receptor in human Ishikawa cells assessed as 17-beta-estradiol-induced alkaline phosphatase activity after 3 days by chemiluminescence assay
Type: functional, cell-based
readout.name: IC50 (nM)

Oc1ccc2c(c1)OCCC1=C2[C@@H](c2ccc(OCCN3CCCCCC3)cc2)Oc2cc(F)ccc21 = 81

A. CN(C)CCOc1ccc([C@H]2Oc3cc(O)ccc3C3=C2c2ccc(O)cc2OCC3)cc1
B. CCN(CC)CCOc1ccc([C@H]2Oc3cc(F)ccc3C3=C2c2ccc(O)cc2OCC3)cc1
INPUT: Just tell me: smaller IC50 value, A or B ? Reply briefly: the label of your chosen item.
OUTPUT: A
(A: 61 nM, B: 113 nM)

###

assay.method.text: Half life in rat at 10 mg/kg, po administered as single dose by LC-MS/MS analysis
Type: ADME, organism-based
Set-up: dose 10 mg/kg, route oral
test.settings: in vivo
readout.name: half-life (h)

Sample answers from the record:
Oc1ccc2c(c1)O[C@H](c1ccc(OCCN3CCCCC3)cc1)C1=C2CCOc2ccccc21 = 5.28
COc1ccc2c(c1)OCCC1=C2[C@@H](c2ccc(OCCN3CCCCC3)cc2)Oc2cc(O)ccc21 = 18.6

A. COc1ccc2c(c1)O[C@H](c1ccc(OCCN3CCCCC3)cc1)C1=C2CCOc2cc(OC)ccc21
B. COc1ccc2c(c1)O[C@H](c1ccc(OCCN3CCCCC3)cc1)C1=C2CCOc2cc(O)ccc21
C. Oc1ccc2c(c1)O[C@H](c1ccc(OCCN3CCCCC3)cc1)C1=C2CCOc2cc(O)ccc21
INPUT: // ranking: key=half-life, reverse=True Please reply with the labels ordered as requested. Many thanks.
OUTPUT: B, A, C
(B: 19.8 h, A: 7.2 h, C: 4.8 h)

###

Species: Rattus norvegicus
assay.method.text: animal or person
Assay type: functional
test.settings: Uterus, 72 h, route oral
readout.name: inhibition in vivo at 1 mg/kg (%)
Write the value in % as a bare number.

Sample answers from the record:
CN1CCN(CCOc2ccc([C@@H]3Oc4cc(O)ccc4C4=C3c3ccc(O)cc3OCC4)cc2)CC1 = 5
Oc1ccc2c(c1)O[C@@H](c1ccc(OCCN3CCCCC3)cc1)C1=C2CCOc2ccccc21 = 12
Oc1ccc2c(c1)O[C@H](c1ccc(OCCN3CCCCC3)cc1)C1=C2CCOc2ccccc21 = 5
COc1ccc2c(c1)O[C@H](c1ccc(OCCN3CCCCC3)cc1)C1=C2CCOc2cc(OC)ccc21 = 121

INPUT: Tell me its inhibition in vivo at 1 mg/kg given "CCN(CC)CCOc1ccc([C@H]2Oc3cc(F)ccc3C3=C2c2ccc(O)cc2OCC3)cc1" as the entry.
OUTPUT: 80
